biological target: KRas^G12D (Homo sapiens, UniProt P01116, G12D); construct: Biotinylated KRas (corresponding to amino acids 1-169, produced at Accelegan Inc.); biotin (biotinylated); purchased Accelegan Inc; assay: KRas binding assay (TR-FRET tracer displacement), KRas G12D
Sequence (P01116 1-169 isoform P01116-2 G12D): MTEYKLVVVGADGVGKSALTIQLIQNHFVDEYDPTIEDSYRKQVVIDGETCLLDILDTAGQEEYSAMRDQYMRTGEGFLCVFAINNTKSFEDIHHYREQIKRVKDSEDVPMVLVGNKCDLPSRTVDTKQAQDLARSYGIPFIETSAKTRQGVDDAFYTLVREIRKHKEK
parameterMeasured: IC50 (nM)

CCc1c(F)ccc2cc(O)cc(-c3ncc4c(N5CC6CCC(CCC(N)=O)(C6)C5)nc(OC[C@@]56CCCN5C[C@H](F)C6)nc4c3F)c12 (stereo partly drawn)    22
CN(C)C(=O)c1cc2n(n1)CCCN(c1nc(OC[C@@]34CCCN3C[C@H](F)C4)nc3c(F)c(-c4c5ccccc5cc5[nH]ncc45)ncc13)C2    8

(I) CCc1c(F)ccc2c(Br)c(O)cc(-c3ncc4c(N5C[C@@H]6C[C@H](C5)[C@H](O)C6)nc(OC[C@@]56CCCN5C[C@H](F)C6)nc4c3F)c12
(II) CCc1c(F)ccc2cc(O)cc(-c3ncc4c(N5CCCC(O)(C(N)=O)C5)nc(OC[C@@]56CCCN5C[C@H](F)C6)nc4c3F)c12 (stereo partly drawn)
(III) O=C1NCC2(CCCN(c3nc(OCC45CCCN4CCC5)nc4c(F)c(-c5c6ccccc6cc6[nH]ncc56)ncc34)C2)N1 (stereo not drawn)
(IV) CCc1c(F)ccc2cc(O)cc(-c3ncc4c(N5CCCn6nc(C(=O)N(C)C)cc6C5)nc(N5CC(N(C)C)C5)nc4c3F)c12
Data request: // ascending sort on recorded IC50 Write the labels in rank order as requested.
Data returned: II, III, IV, I
(II: 7 nM, III: 11 nM, IV: 17 nM, I: 407 nM)

Data origin: patent US20260015350A1
